# target_of_assay: AgCyk3
# experimental_protocol: SPOT peptide array binding signal intensity (averaged, normalized) (arbitrary units (background-subtracted, floor 0; scale differs between SH3 domains)); higher = stronger binding of the SH3 domain to the peptide
recorded_metric: SPOT peptide array binding signal intensity

binder: AHFQPQRTAPKPPIS
inequality_symbol: ≤
assay_value: 0
--
binder: FSRRQSMDIPSKNRN
inequality_symbol: =
assay_value: 3
--
binder: LKVTPGRRAPTISKI
inequality_symbol: =
assay_value: 3
--
binder: RLSRLLLSLPPESFT
inequality_symbol: =
assay_value: 2

The values you see were collected from the supplement of paper PMC4466140.
